test system: CAKI-1 renal; test: NCI tumour cell line growth inhibition, 48 h
parameter_measured: TGI

1) C=CCOc1cccc(C2(O)c3ccccc3C3=NCCCN32)c1 (stereo not given)    > 86.6 µM
2) O=[N+]([O-])/C(C(Cl)=C(Cl)Cl)=C(\N1CCOCC1)n1nnc2ccccc21    31.6 µM
3) CCC1C2Cc3ccc(O)cc3C1(CC)CCN2C (stereo not given)    > 100 µM
4) CCN(CC)c1c(C(=O)/C=C/c2ccc(OC)cc2)c(-c2ccccc2)nn(C)c1=O    > 100 µM
5) CC[C@]1(Cc2ccc(OC)c(OC)c2)C=[N+]([O-])O[C@H](OC2CCCC2(c2ccccc2)c2ccccc2)[C@@H]1OC(=O)c1ccccc1 (stereo not given in full)    > 100 µM

* * *

Here the recorded TGI is given for each entry.
tested on: HCT-15 colon; assay: NCI tumour cell line growth inhibition, 48 h
parameter_measured: TGI

1) CCCCOC(=O)C1C2CCC(O2)C1C(=O)OCCCC (stereo not drawn)    > 100 µM
2) Cn1cc(C(=O)NCCC(=N)N)cc1NC(=O)C1=[N+](C)C=C(NC(=O)c2cccc(C(=O)NC3=CC(C(=O)Nc4cc(C(=O)NCCC(=N)N)cn4C)=[N+](C)C3)c2)C1    > 100 µM
3) Cc1ccc2c(c1)[nH]c(=S)n2/C=C1\C(=O)Oc2ccccc2C1=O    > 100 µM
4) COc1cc(CSc2nc3ccc(C)cc3c(=O)n2-c2ccccc2)cc(OC)c1OC    > 100 µM
5) CN[C@@H](C)C(=O)N[C@H](C(=O)N1CCC[C@H]1C(=O)Nc1snnc1-c1ccccc1)C1CCCCC1    > 100 µM
6) Cc1cc2c(cc1C)N(C(=O)CCl)CC(=O)N2    3.42 µM
7) Cc1cc2c(cc1-c1cc3c(cc1C)C(C(C)C)=C(O)C(=O)/C3=C\Nc1c3ccccc3nc3ccccc13)/C(=C/Nc1c3ccccc3nc3ccccc13)C(=O)C(O)=C2C(C)C    14.9 µM
8) CC/C=C1/C(=O)C=C[C@@H]1C/C=C\CCCC(=O)OC    5.31 µM

* * *

Measured TGI of individual entries
test system: HCC-2998 colon; assay: NCI tumour cell line growth inhibition, 48 h
parameter_measured: TGI

1) COC(=O)C1(C(=O)OC)Cc2ccc(OC)cc2C2=C1C(=O)c1ccccc1C2=O    37.6 µM
2) O=C(CCCCCCCCC(=O)N/N=C\c1ccccc1O)N/N=C\c1ccccc1O    > 100 µM
3) CC(C)C1CC[C@@H](C)C[C@@]1(O)CC(N)=O (stereo not given in full)    > 100 µM
4) CC(=O)OC1COC(n2c(O)c(N=NC(N)=S)c3cc(Br)ccc32)C(OC(C)=O)C1OC(C)=O (stereo not given)    > 100 µM
5) COc1c(C)c2c(c(O)c1C/C=C(\C)CCC(=O)O)C(=O)OC2    > 100 µM
6) Cn1cc2ccccc2c1-c1nc(F)nc(F)n1    > 100 µM
7) COC(=O)/C(C)=C(/CCC1(C)OCCO1)O[Si](C)(C)C    > 100 µM
8) COc1ccc(-c2cn(-c3cc(OC)c(OC)c(OC)c3)c(SCc3ccccc3)n2)cc1OC    > 100 µM
9) O=C(Nc1ccc(Cl)cc1)NS(=O)(=O)c1coc2cc(F)ccc2c1=O    > 100 µM
10) O=C1Nc2ccccc2/C1=C/C(=O)c1coc2c1C(=O)c1ccccc1C2=O    > 100 µM

* * *

tested on: 786-0 renal; assay: NCI tumour cell line growth inhibition, 48 h
parameter_measured: TGI

1) Cn1c2ccccc2n2c(N=O)c(-c3ccccc3)nc12    > 100 µM
2) CNc1ncnc2c1ncn2C1C=CC(COS(N)(=O)=O)C1 (stereo unspecified)    > 100 µM
3) CN(C)CCCSc1nc2ccccc2[nH]1    > 100 µM
4) COc1cc(OC(=O)c2ccccc2)cc2c1C(=O)C=CC2=O    18.9 µM
5) O=C(c1cccs1)N(C(=S)N1CCN(c2ccccn2)CC1)c1ccccc1    > 100 µM
6) CCOC(=O)c1cnc2oc3ccc(O)cc3c2c1C    > 100 µM

* * *

test system: MCF7 breast; assay: NCI tumour cell line growth inhibition, 48 h
Quick reference: GI50 of the listed items.
parameter_measured: GI50

1) C=C1C(=O)O[C@H]2[C@H]1CC/C(COC(=O)NCc1ccc(Cn3c(=O)sn(CCCl)c3=O)cc1)=C\CC[C@@]1(C)O[C@@H]21    1910 nM
2) COc1ccc(C(=O)c2cc(OC)c(OC)c(OC)c2)cc1OC(=O)CCl    24.9 nM
3) C#Cc1c(F)ccc2cc(O)cc(-c3ncc4c(N5CC6CCC(C5)N6)nc(OC[C@@]56CCCN5C[C@H](F)C6)nc4c3F)c12    8480 nM
4) CCN(CC)CCCCNc1c2ccccc2[n+](C)c2c1[nH]c1ccccc12    256 nM
5) COc1ccc(CN2c3ccccc3Sc3ccccc32)c(F)c1    32.7 nM
6) Nc1c(C(=O)c2cccc(-c3ccncc3)c2)cnn1-c1ccc(F)cc1F    3080 nM
7) COc1ccc(-c2cn(-c3cc(OC)c(OC)c(OC)c3)c(SCc3ccccc3)n2)cc1OC    > 100000 nM
8) CC(C)(C)n1cc(-c2ccnc(NCCCNS(=O)(=O)c3ccc(C(F)(F)F)cc3)c2)c(-c2cccc(O)c2)n1    1780 nM
9) COc1c(C)c2c(c(O)c1C/C=C(\C)CCC(=O)O)C(=O)OC2    180 nM

* * *

TGI overview
system: K-562 leukemia; assay: NCI tumour cell line growth inhibition, 48 h
parameter_measured: TGI

1) COc1ccc2c(c1)c(=O)oc1cc(OC/C(C)=N\O)ccc12    > 100 µM
2) C(=C\c1cccs1)/c1cccc(/C=C/c2cccs2)n1    > 100 µM
3) Cc1c(C(N)=O)sc2c1C(=O)N(Cc1ccccc1)C1=NN=C(c3ccc(Cl)cc3)CN12    > 100 µM
4) C=C(C)C(=O)O[C@H]1CC(=C)[C@@H]2C[C@H](O)[C@](O)(CCl)[C@@H]2[C@H]2OC(=O)C(=C)[C@@H]21    4.59 µM
5) NC(N)=N/N=C/c1c(-c2ccc(Cl)cc2)nc2sccn12    14.3 µM
6) CCOP(=O)(OCC)/C(C#N)=C/c1ncc[nH]1    > 100 µM

* * *

tested on: MCF7 breast; assay: NCI tumour cell line growth inhibition, 48 h; in the data active = GI50 below about 0.43 µM; inactive = the rest
Possible outcomes: active, inactive

1) O=[N+]([O-])O.[Cu+2].[NH-]CC[NH-].[NH-]CC[NH-]    inactive
2) CC/C=C1/C(=O)C=C[C@@H]1C/C=C\CCCC(=O)OC    inactive
3) COc1cc(C(=O)O[C@H](C(=O)NCCCCCNC(=O)[C@@H](OC(=O)c2cc(OC)cc3c(C)cccc23)[C@]2(C)CO2)[C@]2(C)CO2)c2cccc(C)c2c1    active
4) CN[C@@H](C)C(=O)N[C@H](C(=O)N1CCC[C@H]1C(=O)Nc1snnc1-c1ccccc1)C1CCCCC1    inactive

* * *

# GI50 per entry
tested on: CCRF-CEM leukemia; assay: NCI tumour cell line growth inhibition, 48 h
parameter_measured: GI50

1. CCC[CH2][Sn]1([CH2]CCC)[O]C(=O)c2cccnc2[O]1    731 nM
2. CCN(CC)CCCCNc1c2ccccc2[n+](C)c2c1[nH]c1ccccc12    590 nM
3. COc1c(C)c2c(c(O)c1C/C=C(\C)CCC(=O)O)C(=O)OC2    88.9 nM
4. c1ccc2[nH]c(-c3ccc(-c4nccc5c4[nH]c4ccccc45)cc3)nc2c1    3120 nM
5. CC(C)N(Cc1ccccc1)c1c(S)ssc1=S    849 nM
6. C=C1C(=O)O[C@H]2[C@H]1CC/C(COC(=O)NCc1cn(C)c3ccccc13)=C\CC[C@@]1(C)O[C@@H]21    335 nM
7. O=C1Nc2ccccc2/C1=C/C(=O)c1coc2c1C(=O)c1ccccc1C2=O    > 100000 nM
8. C=C(C)C(=O)O[C@H]1CC(=C)[C@@H]2C[C@H](O)[C@](O)(CCl)[C@@H]2[C@H]2OC(=O)C(=C)[C@@H]21    1570 nM
9. COc1ccc2nc3cccc([N+](=O)[O-])c3c(NCCCCCC(=O)O)c2c1    39.7 nM
10. COc1ccc(-c2c[nH]c(C(=O)O)c2-c2cc(OC)c(OC)c(OC)c2)cc1    4080 nM
11. C[C@H]1[C@H](C)CC[C@]2(CO)CC[C@]3(C)C(=CC[C@@H]4[C@@]5(C)CCCNC(C)(C)[C@@H]5CC[C@]43C)[C@H]12    1740 nM

* * *

tested on: T-47D breast; test: NCI tumour cell line growth inhibition, 48 h
parameter_measured: TGI

1. CN(C)CCN1C(=O)c2ccccc2N(C)c2ccccc21    > 100 µM
2. CN(O)c1nc(N(C)O)nc(N2CCOCC2)n1    > 100 µM
3. Cc1nn2c(/C=C3\C(=O)Nc4ccc(Cl)cc43)c(C)nc2s1    > 100 µM
4. COC(=O)C1(CCC(C)=O)CCCCCC1=O (stereo not given)    > 100 µM
5. CCC(C)(CC(C)(C)C(=O)NCC(=O)NC(Cc1ccccc1)C(=O)NC(Cc1ccccc1)C(=O)NCC(=O)NC1CC(OC2CC(O)(C(=O)CO)Cc3c(O)c4c(c(O)c32)C(=O)c2c(OC)cccc2C4=O)OC(C)C1O)C(=O)NCC(C)O (stereo not given)    > 150 µg/mL
6. O=C(NC1=NCC(CN2CCN(c3ccccc3)CC2)O1)Nc1ccccc1 (stereo not given)    > 100 µM
7. COc1ccc(C(=O)c2cc(OC)c(OC)c(OC)c2)cc1OC(=O)CCl    97.3 µM
8. COc1ccc(Nc2nnc(-c3nsc4ccccc34)s2)cc1    > 100 µM
9. Cc1nc2ccccc2n1COC(Cn1ccnc1)c1ccc(Cl)cc1Cl (stereo not given)    > 100 µM
10. CCOC(=O)c1cccn1S(=O)(=O)c1cc(Cl)ccc1NC(=O)CC    > 100 µM
